// provenance: paper PMC9482650

Molecular target: T1, LIN7A, O14910
T1 sequence (O14910 103-200, limits assumed, looked up): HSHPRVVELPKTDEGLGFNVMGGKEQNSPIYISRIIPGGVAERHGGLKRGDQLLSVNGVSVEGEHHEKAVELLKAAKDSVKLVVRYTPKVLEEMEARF
Assay: holdup assay
Parameters: key: below the threshold = too weak to quantify, mostly under pKd 3.1 to 4
Conditions: plain residues with an end cap or a label only (N-terminal biotin on a linker: ado-ado)
RESULT_TYPE: pKd

- BINDER: "ETQVTAETVI [TMEM225B, P0DP42]"
  pKd: "below the threshold"
- BINDER: "SGSLKLMTTV [DACT1, Q9NYF0]"
  pKd: 3.68
- BINDER: "SAKVRTVTSV [RASL11B, Q9BPW5]"
  pKd: "below the threshold"
- BINDER: "LPHPHSTTRV [NLGN2, Q8NFZ4]"
  pKd: "below the threshold"
- BINDER: "GSGAVEMESV [AQP6, Q13520]"
  pKd: "below the threshold"

So what's the measured pKd for this one? LPHGHSTTRV [NLGN4X, Q8N0W4]
below the threshold

So what's the measured pKd for this one? CLREWCDAFL [BANF1, O75531]
below the threshold

So what's the measured pKd for this one? EKKTLIGIKL [GOT1L1, Q8NHS2]
below the threshold

So what's the measured pKd for this one? QSPANIYYKV [EFNB1, P52799]
below the threshold

So what's the measured pKd for this one? RHGSCVETSL [TMEM151B, Q8IW70]
4.04

So what's the measured pKd for this one? NLSIEKETKL [ASNSD1, Q9NWL6]
below the threshold
